Molecular target: MLLT1 (Homo sapiens)
Construct: endogenous in cells; host or cells: MV4-11 (ATCC CRL-9591)
Assay: MLLT1 degradation assay (JESS automated chemiluminescent detection) in MV4-11 cells
Assay type: cell-based
Settings: 1 µM, 24h, with respect to DMSO control
// values below are reported inhibition at 1 µM

The molecule Cc1nn(CCCCCCCC#Cc2cccc(C3CCC(=O)NC3=O)n2)c2cc(C(=O)Nc3cc4[nH]c([C@H]5CCCN5C)cc4cn3)ccc12 (some centres unmarked) showed inhibition at 1 µM equal to ≥ 75%

Others:
The molecule Cc1nn(CCCC2CCN(c3cccc4c3C(=O)N(C3CCC(=O)NC3=O)C4=O)CC2)c2cc(C(=O)Nc3cc4[nH]c([C@H]5CCCN5C)cc4cn3)ccc12 (some centres unmarked) showed inhibition at 1 µM equal to ≥ 75%

The molecule Cc1nn(CCCCCCCC#Cc2cc3c(cc2F)c(N2CCC(=O)NC2=O)nn3C)c2cc(C(=O)Nc3cc4[nH]c([C@H]5CCCN5C)cc4cn3)ccc12 showed inhibition at 1 µM equal to ≥ 75%

The molecule Cc1nn(CCCCCCCC#Cc2cc3c(cc2F)C(=O)N(C2CCC(=O)NC2=O)C3)c2cc(C(=O)Nc3cc4[nH]c([C@H]5CCCN5C)cc4cn3)ccc12 (some centres unmarked) showed inhibition at 1 µM equal to ≥ 75%

The molecule Cc1nn(CCCCCCCC#Cc2cccc(N3CCC(=O)NC3=O)c2F)c2cc(C(=O)Nc3cc4[nH]c([C@H]5CCCN5C)cc4cn3)ccc12 showed inhibition at 1 µM equal to ≥ 75%

The molecule Cc1nn(CC#Cc2cccc3c2CN(C2CCC(=O)NC2=O)C3=O)c2cc(C(=O)Nc3cc4[nH]c([C@H]5CCCN5C)cc4cn3)ccc12 (some centres unmarked) showed inhibition at 1 µM equal to 50 to 75%

###

// values below are reported inhibition at 0.01 µM
Molecular target: MLLT1 (Homo sapiens)
Construct: endogenous in cells; host or cells: MV4-11 (ATCC CRL-9591)
Experiment: MLLT1 degradation assay (JESS automated chemiluminescent detection) in MV4-11 cells
Format: cell-based
Settings: 0.01 µM, 24h, with respect to DMSO control

The molecule Cc1nn(CCCCCCCC#Cc2ccc(F)c3c2CN(C2CCC(=O)NC2=O)C3=O)c2cc(C(=O)Nc3cc4[nH]c([C@H]5CCCN5C)cc4cn3)ccc12 (stereo partly drawn) [Example 52] showed inhibition at 0.01 µM equal to ≥ 75%

The molecule CN1CCC[C@@H]1c1cc2cnc(NC(=O)c3ccc4cnn(CCCCCCCC#Cc5cccc6c5CN(C5CCC(=O)NC5=O)C6=O)c4c3)cc2[nH]1 (stereo partly drawn) [Example 55] showed inhibition at 0.01 µM equal to 50 to 75%

The molecule Cc1nn(CCCC2CCN(c3cccc4c3C(=O)N(C3CCC(=O)NC3=O)C4=O)CC2)c2cc(C(=O)Nc3cc4[nH]c([C@H]5CCCN5C)cc4cn3)ccc12 (stereo partly drawn) [Example 27] showed inhibition at 0.01 µM equal to ≥ 75%

The molecule Cc1nn(CCCCCCCC#Cc2cccc3c2CN(C2CCC(=O)NC2=O)C3=O)c2cc(C(=O)Nc3cc4[nH]c([C@H]5CC6(CC6)CN5C)cc4cn3)ccc12 (stereo in doubt) [Example 56] showed inhibition at 0.01 µM equal to ≥ 75%

The molecule Cc1nn(CCCC#Cc2cccc3c2CN(C2CCC(=O)NC2=O)C3=O)c2cc(C(=O)Nc3cc4[nH]c([C@H]5CCCN5C)cc4cn3)ccc12 (stereo partly drawn) [Example 32] showed inhibition at 0.01 µM equal to 50 to 75%

Attention now shifts to the item below.
The molecule Cc1nn(CCCCCCCC#Cc2cccc3c2CN(C2CCC(=O)NC2=O)C3=O)c2cc(C(=O)Nc3cc4[nH]c([C@H]5CCCN5C)c(Cl)c4cn3)ccc12 (stereo partly drawn) [Example 53] showed inhibition at 0.01 µM equal to ≥ 75%

###

Biological target: MLLT1 (Homo sapiens, UniProt Q03111)
Construct: endogenous in cells; host or cells: MV4-11 (ATCC CRL-9591)
Sequence (Q03111 whole entry): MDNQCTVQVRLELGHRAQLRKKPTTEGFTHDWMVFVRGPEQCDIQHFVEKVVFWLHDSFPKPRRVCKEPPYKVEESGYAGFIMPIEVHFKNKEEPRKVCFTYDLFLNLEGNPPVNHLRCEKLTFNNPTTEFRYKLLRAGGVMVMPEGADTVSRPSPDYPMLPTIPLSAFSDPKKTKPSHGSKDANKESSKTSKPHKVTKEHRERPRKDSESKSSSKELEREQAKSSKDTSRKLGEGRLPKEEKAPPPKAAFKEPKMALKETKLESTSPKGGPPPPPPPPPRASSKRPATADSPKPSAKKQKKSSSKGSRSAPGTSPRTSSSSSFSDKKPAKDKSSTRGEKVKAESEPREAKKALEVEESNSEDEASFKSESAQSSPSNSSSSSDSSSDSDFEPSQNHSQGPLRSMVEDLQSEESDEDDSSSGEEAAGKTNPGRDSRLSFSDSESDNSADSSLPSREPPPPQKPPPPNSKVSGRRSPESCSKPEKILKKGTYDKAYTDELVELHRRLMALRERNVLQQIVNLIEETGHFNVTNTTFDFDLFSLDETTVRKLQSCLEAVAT
Assay: MLLT1 degradation assay (JESS automated chemiluminescent detection) in MV4-11 cells
Type: cell-based
Conditions: 0.1 µM, 24h, with respect to DMSO control
quantity_measured: inhibition at 0.1 µM

The compound Cc1nn(C2CCN(CC3CCN(c4cc5c(cc4F)C(=O)N(C4CCC(=O)NC4=O)C5=O)CC3)CC2)c2cc(C(=O)Nc3cc4[nH]c([C@H]5CCCN5C)cc4cn3)ccc12 (stereo partly shown) showed inhibition at 0.1 µM equal to ≥ 75%

The compound Cc1nn(C2CCC(CCCC#Cc3cccc4c3CN(C3CCC(=O)NC3=O)C4=O)CC2)c2cc(C(=O)Nc3cc4[nH]c([C@H]5CCCN5C)cc4cn3)ccc12 (stereo partly shown) showed inhibition at 0.1 µM equal to 50 to 75%

The compound Cc1nn(CCCCCCCCC#Cc2cccc3c2CN(C2CCC(=O)NC2=O)C3=O)c2cc(C(=O)Nc3cc4[nH]c([C@H]5CCCN5C)cc4cn3)ccc12 (stereo partly shown) showed inhibition at 0.1 µM equal to ≥ 75%

Others:
The compound Cc1nn(CCCCCCCC#Cc2ccc(F)c3c2CN(C2CCC(=O)NC2=O)C3=O)c2cc(C(=O)Nc3cc4[nH]c([C@H]5CCCN5C)cc4cn3)ccc12 (stereo partly shown) showed inhibition at 0.1 µM equal to ≥ 75%

The compound Cc1nn(CCCC2CCN(c3cccc4c3C(=O)N(C3CCC(=O)NC3=O)C4=O)CC2)c2cc(C(=O)Nc3cc4[nH]c([C@H]5CCCN5C)cc4cn3)ccc12 (stereo partly shown) showed inhibition at 0.1 µM equal to ≥ 75%

The compound Cc1nn(CCCCCCCC#Cc2cc3c(cc2F)C(=O)N(C2CCC(=O)NC2=O)C3)c2cc(C(=O)Nc3cc4[nH]c([C@H]5CCCN5C)cc4cn3)ccc12 (stereo partly shown) showed inhibition at 0.1 µM equal to 50 to 75%

The compound CN1CCC[C@@H]1c1cc2cnc(NC(=O)c3ccc4c(c3)c(N3CCC(CN5CCN(c6cc7c(cc6F)C(=O)N(C6CCC(=O)NC6=O)C7=O)CC5)CC3)nn4C)cc2[nH]1 (stereo partly shown) showed inhibition at 0.1 µM equal to 50 to 75%

The compound Cc1c(OCCCCCCn2nc(C)c3ccc(C(=O)Nc4cc5[nH]c([C@H]6CCCN6C)cc5cn4)cc32)cccc1N1CCC(=O)NC1=O showed inhibition at 0.1 µM equal to 25 to 50%

###

Molecular target: MLLT1 (Homo sapiens, UniProt Q03111)
Construct: endogenous in cells; host or cells: MV4-11 (ATCC CRL-9591)
Experiment: MLLT1 degradation assay (JESS automated chemiluminescent detection) in MV4-11 cells
Format: cell-based
Settings: 0.01 µM, 24h, with respect to DMSO control
// values below are reported inhibition at 0.01 µM

Guide cases for inhibition at 0.01 µM, answers given:
The molecule Cc1nn(CCCCCCCCNc2cccc3c2C(=O)N(C2CCC(=O)NC2=O)C3=O)c2cc(C(=O)Nc3cc4[nH]c(C5CCCN5C)cc4cn3)ccc12 (racemic) showed inhibition at 0.01 µM equal to 50 to 75%

The molecule Cc1c(OCCCCCCn2nc(C)c3ccc(C(=O)Nc4cc5[nH]c([C@H]6CCCN6C)cc5cn4)cc32)cccc1N1CCC(=O)NC1=O showed inhibition at 0.01 µM equal to 25 to 50%

The molecule Cc1nn(CCOCCCCC#Cc2cccc3c2CN(C2CCC(=O)NC2=O)C3=O)c2cc(C(=O)Nc3cc4[nH]c([C@H]5CCCN5C)cc4cn3)ccc12 (stereo partly shown) showed inhibition at 0.01 µM equal to ≥ 75%

The molecule Cc1nn(CCCCCCCC#Cc2cccc(C(=O)N[C@H]3CCC(=O)NC3=O)c2F)c2cc(C(=O)Nc3cc4[nH]c([C@H]5CCCN5C)cc4cn3)ccc12 showed inhibition at 0.01 µM equal to 25 to 50%

The molecule Cc1nn(CCCCCCCC#Cc2cccc3c2CN(C2CCC(=O)NC2=O)C3=O)c2cc(C(=O)Nc3cc4[nH]c([C@H]5CCCN5C)cc4cn3)c(F)cc12 (stereo partly shown) showed inhibition at 0.01 µM equal to ≥ 75%

The molecule Cc1nn(CCCCCCCC=C(Cl)c2ccc3c(c2)n(C)c(=O)n3C2CCC(=O)NC2=O)c2cc(C(=O)Nc3cc4[nH]c([C@H]5CCCN5C)cc4cn3)ccc12 (mixture of isomers) showed inhibition at 0.01 µM equal to ≥ 75%

The molecule CCN1CCC[C@@H]1c1cc2cnc(NC(=O)c3ccc4c(C)nn(CCCCCCCC#Cc5cccc6c5CN(C5CCC(=O)NC5=O)C6=O)c4c3)cc2[nH]1 (stereo partly shown) showed inhibition at 0.01 µM equal to 25 to 50%

The molecule Cc1c(OCCCCCCCCn2nc(C)c3ccc(C(=O)Nc4cc5[nH]c([C@H]6CCCN6C)cc5cn4)cc32)cccc1N1CCC(=O)NC1=O showed inhibition at 0.01 µM equal to < 25%

The molecule Cc1nn(CCCCCCCC#Cc2ccnc(C(=O)N[C@H]3CCC(=O)NC3=O)c2)c2cc(C(=O)Nc3cc4[nH]c([C@H]5CCCN5C)cc4cn3)ccc12 showed inhibition at 0.01 µM equal to 25 to 50%

The molecule Cc1nn(CCCCCCCCNc2cccc3c2CN(C2CCC(=O)NC2=O)C3=O)c2cc(C(=O)Nc3cc4[nH]c([C@H]5CCCN5C)cc4cn3)ccc12 (stereo partly shown) showed inhibition at 0.01 µM equal to ≥ 75%

Others:
The molecule Cc1nn(CCCCCCCC#Cc2ccc(F)c3c2CN(C2CCC(=O)NC2=O)C3=O)c2cc(C(=O)Nc3cc4[nH]c([C@H]5CCCN5C)c(Cl)c4cn3)ccc12 (stereo partly shown) showed inhibition at 0.01 µM equal to ≥ 75%

The molecule Cc1nn(CCCCCCCCNc2cccc3c2C(=O)N(C2CCC(=O)NC2=O)C3=O)c2cc(C(=O)Nc3cc4[nH]c([C@@H]5CCCN5C)cc4cn3)ccc12 (stereo partly shown) showed inhibition at 0.01 µM equal to < 25%

The molecule Cc1nn(CCCCCC2CCN(c3cccc4c3C(=O)N(C3CCC(=O)NC3=O)C4=O)CC2)c2cc(C(=O)Nc3cc4[nH]c([C@H]5CCCN5C)cc4cn3)ccc12 (stereo partly shown) showed inhibition at 0.01 µM equal to 50 to 75%

The molecule Cc1nn(CCCCCOCC#Cc2cccc3c2CN(C2CCC(=O)NC2=O)C3=O)c2cc(C(=O)Nc3cc4[nH]c([C@H]5CCCN5C)cc4cn3)ccc12 (stereo partly shown) showed inhibition at 0.01 µM equal to ≥ 75%

The molecule Cc1nn(C2CCN(CC3CCN(c4ccc5c(c4)C(=O)N(C4CCC(=O)NC4=O)C5=O)CC3)CC2)c2cc(C(=O)Nc3cc4[nH]c([C@H]5CCCN5C)cc4cn3)ccc12 (stereo partly shown) showed inhibition at 0.01 µM equal to ≥ 75%

The molecule Cc1c(C#CCCCCCn2nc(C)c3ccc(C(=O)Nc4cc5[nH]c([C@H]6CCCN6C)cc5cn4)cc32)cccc1C(=O)NC1CCC(=O)NC1=O (stereo partly shown) showed inhibition at 0.01 µM equal to 25 to 50%

The molecule Cc1nn(CCCCCN2CCN(c3cccc4c3C(=O)N(C3CCC(=O)NC3=O)C4=O)CC2)c2cc(C(=O)Nc3cc4[nH]c([C@H]5CCCN5C)cc4cn3)ccc12 (stereo partly shown) showed inhibition at 0.01 µM equal to < 25%

The molecule CN1CCC[C@@H]1c1cc2cnc(NC(=O)c3ccc4c(c3)c(N3CCC(CN5CCN(c6cc7c(cc6F)C(=O)N(C6CCC(=O)NC6=O)C7=O)CC5)CC3)nn4C)cc2[nH]1 (stereo partly shown) showed inhibition at 0.01 µM equal to 25 to 50%

The molecule Cc1nn(CCCCCCCC#Cc2cc3c(cc2F)C(=O)N(C2CCC(=O)NC2=O)C3)c2cc(C(=O)Nc3cc4[nH]c([C@H]5CCCN5C)cc4cn3)ccc12 (stereo partly shown) showed inhibition at 0.01 µM equal to 25 to 50%

The molecule Cc1nn(C2CCN(CC3CCN(c4cccc5c4C(=O)N(C4CCC(=O)NC4=O)C5=O)CC3)CC2)c2cc(C(=O)Nc3cc4[nH]c([C@H]5CCCN5C)cc4cn3)ccc12 (stereo partly shown) showed inhibition at 0.01 µM equal to 50 to 75%

The molecule Cc1nn(CCCCCC#Cc2cccc3c2C(=O)N(C2CCC(=O)NC2=O)C3=O)c2cc(C(=O)Nc3cc4[nH]c([C@H]5CCCN5C)cc4cn3)ccc12 (stereo partly shown) showed inhibition at 0.01 µM equal to 50 to 75%

The molecule Cc1nn(CCCCCCCC#Cc2cccc3c2CN(C2CCC(=O)NC2=O)C3=O)c2cc(C(=O)Nc3cc4[nH]c([C@H]5CCCN5C)cc4cn3)ccc12 (mixture of isomers) showed inhibition at 0.01 µM equal to ≥ 75%
